Where do these numbers come from? They come from patent US12195506B2.

# study.target: HLA-A*01:01 (Homo sapiens, UniProt P04439, A114D/A174V/A182V/D101N/D185E/E176A/E190D/L180R/Q94H/R68K/S129P/T187R/V100A/V91M/W191G)
# assay.comment: MHC binding assay: UV-ligand exchange, ELISA of stabilized MHC complexes (peptide exchange yield)
# experimental.parameters: binding to HLA-A*01:01, UV-ligand exchange
# Source text: Candidate peptides for T cell based therapies according to the present invention were further tested for their MHC binding capacity (affinity). The individual peptide-MHC complexes were produced by UV-ligand exchange, where a UV-sensitive peptide is cleaved upon UV-irradiation and exchanged with the peptide of interest as analyzed. Only peptide candidates that can effectively bind and stabilize the peptide-receptive MHC molecules prevent dissociation of the MHC complexes. […]
reported.endpoint: Peptide exchange

Worked examples, 7 substances total:
>  <substance>
355 (MADRGEARL; listed as Homo sapiens) [compound 355]

>  <reported.endpoint>
Peptide exchange

>  <measured>
++ (>20% = ++)

$$$$
>  <substance>
275 (ESDEMENLLTY; listed as Homo sapiens) [compound 275]

>  <reported.endpoint>
Peptide exchange

>  <measured>
+++ (>50 = +++)

$$$$
>  <substance>
114 (AVAAAAGASLY; listed as Homo sapiens) [compound 114]

>  <reported.endpoint>
Peptide exchange

>  <measured>
++ (>20% = ++)

$$$$
>  <substance>
182 (TQPELSSRY; listed as Homo sapiens) [compound 182]

>  <reported.endpoint>
Peptide exchange

>  <measured>
++ (>20% = ++)

$$$$
>  <substance>
147 (AQVQDTGRY; listed as Homo sapiens) [compound 147]

>  <reported.endpoint>
Peptide exchange

>  <measured>
+++ (>50 = +++)

$$$$
>  <substance>
208 (LLISKAEDY; listed as Homo sapiens) [compound 208]

>  <reported.endpoint>
Peptide exchange

>  <measured>
++ (>20% = ++)

$$$$
>  <substance>
95 (SSDPKAVMF; listed as Homo sapiens) [compound 95]

>  <reported.endpoint>
Peptide exchange

>  <measured>
++ (>20% = ++)

$$$$

-- ask Peptide exchange lookup needed for 139 (PVHDSVGVTY; listed as Homo sapiens) [compound 139] , thanks.
-- reply ++ (>20% = ++)

---

# study.target: HLA-A*01:01 (Homo sapiens, UniProt P04439, A114D/A174V/A182V/D101N/D185E/E176A/E190D/L180R/Q94H/R68K/S129P/T187R/V100A/V91M/W191G)
# assay.comment: MHC binding assay: UV-ligand exchange, ELISA of stabilized MHC complexes (peptide exchange yield)
# experimental.parameters: binding to HLA-A*01:01, UV-ligand exchange
reported.endpoint: Peptide exchange

Worked examples, 4 substances total:
>  <substance>
359 (NKEINYFMY; listed as Homo sapiens) [compound 359]

>  <measured>
+++ (>50 = +++)

$$$$
>  <substance>
376 (EDDEDEDLY; listed as Homo sapiens) [compound 376]

>  <measured>
+++ (>50 = +++)

$$$$
>  <substance>
48 (FTTQDELLVY; listed as Homo sapiens) [compound 48]

>  <measured>
+++ (>50 = +++)

$$$$
>  <substance>
121 (SADEAHGLL; listed as Homo sapiens) [compound 121]

>  <measured>
++ (>20% = ++)

$$$$

-- ask Peptide exchange lookup needed for 181 (SVTDLIGGKW; listed as Homo sapiens) [compound 181] , thanks.
-- reply ++ (>20% = ++)

-- ask Peptide exchange lookup needed for 225 (STDPNIVRK; listed as Homo sapiens) [compound 225] , thanks.
-- reply +++ (>50 = +++)

-- ask Peptide exchange lookup needed for 287 (ENSIEDLQY; listed as Homo sapiens) [compound 287] , thanks.
-- reply +++ (>50 = +++)

-- ask Peptide exchange lookup needed for 116 (RSDIGEFEW; listed as Homo sapiens) [compound 116] , thanks.
-- reply ++ (>20% = ++)

-- ask Peptide exchange lookup needed for 176 (HTDLESPSAVY; listed as Homo sapiens) [compound 176] , thanks.
-- reply +++ (>50 = +++)

-- ask Peptide exchange lookup needed for 212 (MMTDLTSVY; listed as Homo sapiens) [compound 212] , thanks.
-- reply +++ (>50 = +++)

-- ask Peptide exchange lookup needed for 304 (FSENLIYTYI; listed as Homo sapiens) [compound 304] , thanks.
-- reply ++ (>20% = ++)

-- ask Peptide exchange lookup needed for 82 (LTEKSHIRY; listed as Homo sapiens) [compound 82] , thanks.
-- reply +++ (>50 = +++)

---

# study.target: HLA-A*01:01 (Homo sapiens, UniProt P04439, A114D/A174V/A182V/D101N/D185E/E176A/E190D/L180R/Q94H/R68K/S129P/T187R/V100A/V91M/W191G)
# assay.comment: MHC binding assay: UV-ligand exchange, ELISA of stabilized MHC complexes (peptide exchange yield)
# experimental.parameters: binding to HLA-A*01:01, UV-ligand exchange
reported.endpoint: Peptide exchange

Worked examples, 10 substances total:
>  <substance>
35 (SWSAGENDSYS; listed as Homo sapiens) [compound 35]

>  <Peptide exchange>
+ (>10% =+)

$$$$
>  <substance>
47 (WSDGVPLLY; listed as Homo sapiens) [compound 47]

>  <Peptide exchange>
++++ (>75% = ++++)

$$$$
>  <substance>
80 (ELCPLPGTSAY; listed as Homo sapiens) [compound 80]

>  <Peptide exchange>
++ (>20% = ++)

$$$$
>  <substance>
93 (HLKILSPIY; listed as Homo sapiens) [compound 93]

>  <Peptide exchange>
+++ (>50 = +++)

$$$$
>  <substance>
323 (KTLQKPVLPLY; listed as Homo sapiens) [compound 323]

>  <Peptide exchange>
++ (>20% = ++)

$$$$
>  <substance>
46 (RSDPGGGGLAYAAY; listed as Homo sapiens) [compound 46]

>  <Peptide exchange>
++++ (>75% = ++++)

$$$$
>  <substance>
251 (GIEMTYETY; listed as Homo sapiens) [compound 251]

>  <Peptide exchange>
++ (>20% = ++)

$$$$
>  <substance>
362 (SGALDEAAAY; listed as Homo sapiens) [compound 362]

>  <Peptide exchange>
++ (>20% = ++)

$$$$
>  <substance>
387 (LMEKEDYHSLY; listed as Homo sapiens) [compound 387]

>  <Peptide exchange>
+++ (>50 = +++)

$$$$
>  <substance>
223 (NAVDVVPSSF; listed as Homo sapiens) [compound 223]

>  <Peptide exchange>
+ (>10% =+)

$$$$

-- ask Peptide exchange lookup needed for 179 (SSTDFTFASW; listed as Homo sapiens) [compound 179] , thanks.
-- reply + (>10% =+)

-- ask Peptide exchange lookup needed for 167 (RAVQPGETY; listed as Homo sapiens) [compound 167] , thanks.
-- reply +++ (>50 = +++)

-- ask Peptide exchange lookup needed for 33 (SMDPVTGYQY; listed as Homo sapiens) [compound 33] , thanks.
-- reply +++ (>50 = +++)

-- ask Peptide exchange lookup needed for 319 (FTDPHIITF; listed as Homo sapiens) [compound 319] , thanks.
-- reply ++++ (>75% = ++++)

-- ask Peptide exchange lookup needed for 3 (FGTTPAAEYF; listed as Homo sapiens) [compound 3] , thanks.
-- reply ++ (>20% = ++)

-- ask Peptide exchange lookup needed for 85 (SSDNYEHWLY; listed as Homo sapiens) [compound 85] , thanks.
-- reply ++++ (>75% = ++++)

-- ask Peptide exchange lookup needed for 350 (LTDPQVSYV; listed as Homo sapiens) [compound 350] , thanks.
-- reply +++ (>50 = +++)

-- ask Peptide exchange lookup needed for 163 (KIRAEVLSHY; listed as Homo sapiens) [compound 163] , thanks.
-- reply ++ (>20% = ++)

-- ask Peptide exchange lookup needed for 68 (QSLPEFGLTY; listed as Homo sapiens) [compound 68] , thanks.
-- reply ++ (>20% = ++)

-- ask Peptide exchange lookup needed for 15 (YLDSSKPAVY; listed as Homo sapiens) [compound 15] , thanks.
-- reply +++ (>50 = +++)

-- ask Peptide exchange lookup needed for 126 (TTDPKKFQY; listed as Homo sapiens) [compound 126] , thanks.
-- reply ++++ (>75% = ++++)

---

# study.target: HLA-A*01:01 (Homo sapiens, UniProt P04439, A114D/A174V/A182V/D101N/D185E/E176A/E190D/L180R/Q94H/R68K/S129P/T187R/V100A/V91M/W191G)
# assay.comment: MHC binding assay: UV-ligand exchange, ELISA of stabilized MHC complexes (peptide exchange yield)
# experimental.parameters: binding to HLA-A*01:01, UV-ligand exchange
# Excerpt: Candidate peptides for T cell based therapies according to the present invention were further tested for their MHC binding capacity (affinity). The individual peptide-MHC complexes were produced by UV-ligand exchange, where a UV-sensitive peptide is cleaved upon UV-irradiation and exchanged with the peptide of interest as analyzed. Only peptide candidates that can effectively bind and stabilize the peptide-receptive MHC molecules prevent dissociation of the MHC complexes. […]
reported.endpoint: Peptide exchange

>  <substance>
343 (YFGNYFTYY; listed as Homo sapiens) [compound 343]

>  <measured>
+ (>10% =+)

$$$$
>  <substance>
299 (EVDSVALSL; listed as Homo sapiens) [compound 299]

>  <measured>
++ (>20% = ++)

$$$$
>  <substance>
137 (EAYLERIGY; listed as Homo sapiens) [compound 137]

>  <measured>
+++ (>50 = +++)

$$$$
>  <substance>
5 (FMVIAGMPLFY; listed as Homo sapiens) [compound 5]

>  <measured>
+++ (>50 = +++)

$$$$
>  <substance>
4 (RIEAIRAEY; listed as Homo sapiens) [compound 4]

>  <measured>
++ (>20% = ++)

$$$$
>  <substance>
199 (LCAAVLAKY; listed as Homo sapiens) [compound 199]

>  <measured>
++ (>20% = ++)

$$$$
>  <substance>
11 (ASDHWRGRY; listed as Homo sapiens) [compound 11]

>  <measured>
+++ (>50 = +++)

$$$$
>  <substance>
51 (STEERRLNY; listed as Homo sapiens) [compound 51]

>  <measured>
+++ (>50 = +++)

$$$$
>  <substance>
221 (TDVERIKDTY; listed as Homo sapiens) [compound 221]

>  <measured>
+++ (>50 = +++)

$$$$
>  <substance>
289 (YTSHEDIGY; listed as Homo sapiens) [compound 289]

>  <measured>
++++ (>75% = ++++)

$$$$

-- ask Peptide exchange lookup needed for 264 (YRDPVFVSL; listed as Homo sapiens) [compound 264] , thanks.
-- reply ++ (>20% = ++)

-- ask Peptide exchange lookup needed for 222 (GSPDAVVSY; listed as Homo sapiens) [compound 222] , thanks.
-- reply + (>10% =+)

-- ask Peptide exchange lookup needed for 138 (IPVHDSVGVTY; listed as Homo sapiens) [compound 138] , thanks.
-- reply +++ (>50 = +++)

-- ask Peptide exchange lookup needed for 213 (VSDSTTEITY; listed as Homo sapiens) [compound 213] , thanks.
-- reply +++ (>50 = +++)

-- ask Peptide exchange lookup needed for 92 (TTDDTTAMASAS; listed as Homo sapiens) [compound 92] , thanks.
-- reply ++ (>20% = ++)

-- ask Peptide exchange lookup needed for 160 (EVLGEEMYAY; listed as Homo sapiens) [compound 160] , thanks.
-- reply ++ (>20% = ++)

-- ask Peptide exchange lookup needed for 307 (DTDDRELRY; listed as Homo sapiens) [compound 307] , thanks.
-- reply +++ (>50 = +++)

-- ask Peptide exchange lookup needed for 165 (VSVYNSYPY; listed as Homo sapiens) [compound 165] , thanks.
-- reply ++ (>20% = ++)

-- ask Peptide exchange lookup needed for 201 (SLPEFGLTYY; listed as Homo sapiens) [compound 201] , thanks.
-- reply ++ (>20% = ++)

-- ask Peptide exchange lookup needed for 316 (YTCEECGQAF; listed as Homo sapiens) [compound 316] , thanks.
-- reply ++ (>20% = ++)

-- ask Peptide exchange lookup needed for 282 (QAMPSWPTAAY; listed as Homo sapiens) [compound 282] , thanks.
-- reply ++ (>20% = ++)

-- ask Peptide exchange lookup needed for 197 (NDEIDKLTGY; listed as Homo sapiens) [compound 197] , thanks.
-- reply ++++ (>75% = ++++)

-- ask Peptide exchange lookup needed for 315 (VLKIELETY; listed as Homo sapiens) [compound 315] , thanks.
-- reply +++ (>50 = +++)

-- ask Peptide exchange lookup needed for 136 (RRLNFSGFGY; listed as Homo sapiens) [compound 136] , thanks.
-- reply +++ (>50 = +++)

-- ask Peptide exchange lookup needed for 20 (LSAQHRMLA; listed as Homo sapiens) [compound 20] , thanks.
-- reply ++ (>20% = ++)
